Target: HCV NS3/4A 1b protease wild type (Hepatitis C virus genotype 1b)
Construct: 10× stocks of NS3/4A protease enzyme from Bioenza (Mountain View, Calif.); purchased Bioenza (Mountain View, Calif.)
Assay: HCV protease FRET assay (IC50_APP), Example 16
Type: biochemical
attributeMeasured: IC50

Ask: # get_value(readout='IC50', item= C=C[C@@H]1C[C@]1(NC(=O)[C@@H]1C[C@@H](OC(=O)N2Cc3cccc(F)c3C2)CN1C(=O)CNC(=O)/C=C/C)C(=O)NS(=O)(=O)C1CC1 )
Reply: 100 to 1000 nM

Ask: # get_value(readout='IC50', item= CC(C)(C)OC(=O)N[C@H]1COC(=O)/C=C/C=C\[C@@H]2C[C@@]2(C(=O)NS(=O)(=O)C2CC2)NC(=O)[C@@H]2C[C@@H](OC(=O)N3Cc4cccc(F)c4C3)CN2C1=O )
Reply: < 10 nM

Ask: # get_value(readout='IC50', item= C=CC(=O)NCC[C@H](NC(=O)OC(C)(C)C)C(=O)N1C[C@H](OC(=O)N2Cc3cccc(F)c3C2)C[C@H]1C(=O)N[C@]1(C(=O)NS(=O)(=O)C2CC2)C[C@H]1C=C )
Reply: < 10 nM
